Molecular target: ACE (Oryctolagus cuniculus)
Sequence (P12822 34-1310): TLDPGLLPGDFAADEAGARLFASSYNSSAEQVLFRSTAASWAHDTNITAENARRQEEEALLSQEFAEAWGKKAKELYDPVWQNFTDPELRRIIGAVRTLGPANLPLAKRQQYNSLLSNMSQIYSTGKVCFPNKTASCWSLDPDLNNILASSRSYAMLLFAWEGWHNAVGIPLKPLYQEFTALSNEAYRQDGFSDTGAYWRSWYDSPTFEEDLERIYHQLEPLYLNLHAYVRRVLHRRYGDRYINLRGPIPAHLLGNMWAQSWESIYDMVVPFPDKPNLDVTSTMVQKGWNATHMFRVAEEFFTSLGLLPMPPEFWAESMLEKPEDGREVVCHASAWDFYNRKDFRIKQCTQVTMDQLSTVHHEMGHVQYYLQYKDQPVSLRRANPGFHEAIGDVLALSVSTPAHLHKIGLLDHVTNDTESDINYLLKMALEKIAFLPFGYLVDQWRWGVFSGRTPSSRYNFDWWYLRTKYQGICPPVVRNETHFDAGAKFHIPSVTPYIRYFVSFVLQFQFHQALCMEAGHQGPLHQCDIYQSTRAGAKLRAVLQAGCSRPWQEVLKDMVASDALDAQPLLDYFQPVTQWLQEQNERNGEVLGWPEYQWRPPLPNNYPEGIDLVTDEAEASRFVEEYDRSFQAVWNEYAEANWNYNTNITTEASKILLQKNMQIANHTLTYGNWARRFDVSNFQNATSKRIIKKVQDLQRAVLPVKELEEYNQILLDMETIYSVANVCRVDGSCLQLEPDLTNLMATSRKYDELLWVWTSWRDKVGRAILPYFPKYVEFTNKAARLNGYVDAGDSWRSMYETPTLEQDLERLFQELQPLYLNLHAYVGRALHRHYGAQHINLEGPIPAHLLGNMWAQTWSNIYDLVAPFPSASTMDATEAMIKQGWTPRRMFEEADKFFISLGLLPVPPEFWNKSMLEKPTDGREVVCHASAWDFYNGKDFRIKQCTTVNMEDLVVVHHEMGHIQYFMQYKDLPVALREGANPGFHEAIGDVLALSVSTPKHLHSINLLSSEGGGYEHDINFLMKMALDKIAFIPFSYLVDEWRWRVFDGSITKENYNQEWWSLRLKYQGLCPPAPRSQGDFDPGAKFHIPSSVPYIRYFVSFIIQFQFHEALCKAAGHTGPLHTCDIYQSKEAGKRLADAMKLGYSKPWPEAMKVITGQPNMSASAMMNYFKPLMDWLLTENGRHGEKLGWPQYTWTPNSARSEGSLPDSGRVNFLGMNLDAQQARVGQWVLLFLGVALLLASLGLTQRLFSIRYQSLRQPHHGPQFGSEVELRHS
Experiment: ACE-inhibitory activity after simulated in vitro gastrointestinal digestion (pepsin, trypsin)
Type: biochemical
Conditions: pepsin pH 2, 2 h, then trypsin pH 7.5, 2 h, 37 °C; mean ± SD
No end group written: not given here.
Entries and their measured pIC50 follow.
FYI, pIC50 means -log10 of a concentration in mol per litre.

Some substances with known pIC50 results, for comparison:
INSERT INTO measurements (substance, assay_result) VALUES
  ('NWPWMK [NWPWMK, Asn-Trp-Pro-Trp-Met-Lys]', 5.14),
  ('FYEPFM [FYEPFM, Phe-Tyr-Glu-Pro-Phe-Met]', 4.94),
  ('LYDHLGK [LYDHLGK, Leu-Tyr-Asp-His-Leu-Gly-Lys]', 4.61),
  ('IHFGTTGK [IHFGTTGK, Ile-His-Phe-Gly-Thr-Thr-Gly-Lys]', 4.47),
  ('IPYADFK [IPYADFK, Ile-Pro-Tyr-Ala-Asp-Phe-Lys]', 6.10);

Turning to the following substance.
Response field pIC50 (ACE (Oryctolagus cuniculus)) for item INEMLDTK [INEMLDTK, Ile-Asn-Glu-Met-Leu-Asp-Try-Lys] : 4.81

* * *

Entries and their measured log10(IC50) follow.
Biological target: ACE (Oryctolagus cuniculus)
Assay: ACE-inhibitory activity (HHL substrate, HPLC determination of hippuric acid)
Format: biochemical
Details: synthetic peptides, n = 3, mean ± SD; read-out: IC50 value before digestion
No end group written: not given here.
Units before log transform: µM; reported quantity: IC50; transform: log10.

Some substances with known log10(IC50) results, for comparison:
INSERT INTO results (substance, assay_result) VALUES
  ('IHFGTTGK [IHFGTTGK, Ile-His-Phe-Gly-Thr-Thr-Gly-Lys]', 0.73),
  ('FYEPFM [FYEPFM, Phe-Tyr-Glu-Pro-Phe-Met]', 1.01),
  ('LYDHLGK [LYDHLGK, Leu-Tyr-Asp-His-Leu-Gly-Lys]', 0.97),
  ('NWPWMK [NWPWMK, Asn-Trp-Pro-Trp-Met-Lys]', 0.79),
  ('INEMLDTK [INEMLDTK, Ile-Asn-Glu-Met-Leu-Asp-Try-Lys]', 0.81);

Turning to the following substance.
Looking up IPYADFK [IPYADFK, Ile-Pro-Tyr-Ala-Asp-Phe-Lys] , I see its log10(IC50) listed as -0.20
